- target entity: T1, human IL-12 (human, UniProt P29460 23-328; P29459 23-219)
- T1 construct: Recombinant (Peprotech); FLAG-tagged IL-12 in the flow cytometry assays, biotinylated in the IL-12Rβ2 assay; also called hIL-12
- T1 sequence 1: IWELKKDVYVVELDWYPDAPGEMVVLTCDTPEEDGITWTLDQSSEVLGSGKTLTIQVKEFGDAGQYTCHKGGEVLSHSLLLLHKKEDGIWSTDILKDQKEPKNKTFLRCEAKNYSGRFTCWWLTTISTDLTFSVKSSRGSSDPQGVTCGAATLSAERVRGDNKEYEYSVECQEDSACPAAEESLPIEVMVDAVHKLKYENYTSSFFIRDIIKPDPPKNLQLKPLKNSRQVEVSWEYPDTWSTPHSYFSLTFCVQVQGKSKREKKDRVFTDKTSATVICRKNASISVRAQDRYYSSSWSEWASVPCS
- T1 sequence 2: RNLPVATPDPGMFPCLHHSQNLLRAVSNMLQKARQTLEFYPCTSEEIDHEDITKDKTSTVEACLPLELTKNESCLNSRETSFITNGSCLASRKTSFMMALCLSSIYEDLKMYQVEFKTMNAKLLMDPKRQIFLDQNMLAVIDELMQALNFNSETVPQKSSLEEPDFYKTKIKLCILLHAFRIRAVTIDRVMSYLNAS
- measurement protocol: SPR, IgG on Protein A
attribute measured: pKd
Field pKd (float): negative decimal logarithm of the concentration in molar.

For orientation, consider the following solved cases.
| binder | value |
| --- | --- |
| Antibody 4 (antibody, human IgG1, kappa, V domains shown, Antibody 1 with heavy chain M34L) VH: EVQLQQSGADLVRSGASIKLSCTASGFNIKDYYLHWVKQRPEQGLEWIGWIDPENGDTEYAPKFQGKATMTADTSSNTAYLQLSSLTSEDTAVYYCNACKELRYFDVWGAGTTVTVSS VL: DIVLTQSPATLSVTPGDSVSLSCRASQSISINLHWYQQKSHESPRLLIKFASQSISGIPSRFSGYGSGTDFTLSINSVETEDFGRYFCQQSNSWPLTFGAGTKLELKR | 9.88 |
| Antibody 3 (antibody, human IgG1, kappa, V domains shown, Antibody 1 with light chain W94F) VH: EVQLQQSGADLVRSGASIKLSCTASGFNIKDYYMHWVKQRPEQGLEWIGWIDPENGDTEYAPKFQGKATMTADTSSNTAYLQLSSLTSEDTAVYYCNACKELRYFDVWGAGTTVTVSS VL: DIVLTQSPATLSVTPGDSVSLSCRASQSISINLHWYQQKSHESPRLLIKFASQSISGIPSRFSGYGSGTDFTLSINSVETEDFGRYFCQQSNSFPLTFGAGTKLELKR | 10.36 |
| Antibody 1 (antibody, human IgG1, kappa, V domains shown, Chimeric PMA204, human IgG1/kappa) VH: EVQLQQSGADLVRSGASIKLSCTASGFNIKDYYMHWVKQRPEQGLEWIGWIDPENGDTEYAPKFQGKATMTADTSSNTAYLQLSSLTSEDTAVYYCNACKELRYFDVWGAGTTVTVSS VL: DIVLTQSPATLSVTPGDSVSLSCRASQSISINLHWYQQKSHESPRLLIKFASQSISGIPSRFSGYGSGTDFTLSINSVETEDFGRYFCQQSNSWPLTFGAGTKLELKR | 10.10 |

Okay, next one:
Query :: Give recorded pKd. Antibody 7 (antibody, human IgG1, kappa, V domains shown, Antibody 1 with heavy chain C95N) VH: EVQLQQSGADLVRSGASIKLSCTASGFNIKDYYMHWVKQRPEQGLEWIGWIDPENGDTEYAPKFQGKATMTADTSSNTAYLQLSSLTSEDTAVYYCNANKELRYFDVWGAGTTVTVSS VL: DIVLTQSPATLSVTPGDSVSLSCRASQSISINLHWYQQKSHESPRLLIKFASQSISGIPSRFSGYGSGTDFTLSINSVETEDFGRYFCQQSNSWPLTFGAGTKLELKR
Result :: 10.04
